Data origin, for the record: patent US20120214862A1

Tested on: human Factor 7 mRNA
Test: Antisense inhibition of human Factor 7 mRNA in HepB3 cells, lipofectin, 50 nM, real-time RT-PCR
Format: cell-based
Conditions: HepB3 cells; gapmers (5-10-5, 3-14-3, 2-13-5 MOE) targeted to nucleobases 4868 to 4899 of SEQ ID NO: 1
Experimental: Antisense oligonucleotides targeted to a Factor 7 nucleic acid were tested for their effects on Factor 7 mRNA in vitro. […] After a treatment period of approximately 24 hours, RNA was isolated from the cells and Factor 7 mRNA levels were measured by real-time RT-PCR, as described herein. Factor 7 mRNA levels were adjusted according to total RNA content as measured by RIBOGREEN®. […]
In the oligonucleotide strings, read from the 5' end, every base follows the letter of its sugar. An asterisk marks phosphorothioate; unmarked linkages are phosphodiester. Other units and linkages are bracketed, terminal groups are in braces. A string of capitals states the bases alone. e = 2'-O-(2-methoxyethyl) (MOE); [5mC] = 5-methylcytosine; d = 2'-deoxy (DNA)
VALUE_TYPE: % Inhibition of human Factor 7 mRNA levels (%)
// return numeric value only (unit: %, not printed)

INSERT INTO measurements (substance, units_label, experimental_result) VALUES
  ('416508 (antisense e[5mC]*eG*eA*eG*eT*dT*d[5mC]*dT*dG*d[5mC]*dA*dG*dG*dA*dG*e[5mC]*eG*eG*e[5mC]*e[5mC]) [compound 416508]', '%', 67),
  ('422222 (antisense eA*eG*e[5mC]*d[5mC]*d[5mC]*dG*dA*dG*dT*dT*d[5mC]*dT*dG*d[5mC]*dA*dG*dG*eA*eG*e[5mC]) [compound 422222]', '%', 55);

Dear colleague, I am looking for the recorded % Inhibition of human Factor 7 mRNA levels of the following substance: 422221 (antisense eG*e[5mC]*e[5mC]*d[5mC]*dG*dA*dG*dT*dT*d[5mC]*dT*dG*d[5mC]*dA*dG*dG*dA*eG*e[5mC]*eG) [compound 422221]
59
